# ASSAY_METHOD_TEXT: yeast display, Sf9 membrane polyspecificity reagent, FACS + sequencing; frameworks hold sequencing errors
TEST_READOUT: polyreactivity (PSR sort gate)

// below: answered sequences
{"columns": ["CONSTRUCT_SEQUENCE", "polyreactivity (PSR sort gate)"],
 "data": [
  ["QVQLVESGGGLVQAGGSLRLICAASGSIFRRYAMGWYRQAPGKERELVARITIRGGSTYYADSVKGRFTISRDNAKNTVYLQMNSLKPEDTAVYYCNTVVPASSGGAYRRYYYLGQGTQVTVSS", "high polyreactivity"],
  ["QVQLVESGGGLVQAGGSLRLSCAASGFTFVYYAMGWYRQAPGKERELVATISGHGGRTYYADSVKGRFTISRDNAKNTVYLQMNSLKPEDTAVYYCAALLYIRSVGYDYWGQGTQVTVSS", "low polyreactivity"],
  ["QVQLVESGGGLVQAGGSLRLSCAASGRIFDVYAMGWYRQAPGKERELVATITGSGGGTYYADSVKGRFTISRDNAKNPVYLQMNSLKPEDTADYYCAADYYPTYAYYVSNVGYDYWGQGTQVTVSS", "low polyreactivity"],
  ["QLQLVESGGGLVQAGGSLRLSCAASGRTSRRYAMGWYRQAPGKERELVAAIRGSGGSTYYADSVKGRFTISRDNAKNTVYLQMNSLKPEDTAVYYCAADWSFWSLAYPSAKFYAEFDYWGQGTQVTVSS", "high polyreactivity"],
  ["QEQLVESVGGLVQARGSLRLSGAASGYTFKYNALGWYRPAPGKERELVAAITSGGSTNYADSVKGRFTISRDNAKNTVYLQMNSLKPEDTAVYYCAAAQPRTNAYRVGSWGQGTQVTVSS", "high polyreactivity"],
  ["QVQLVESGGGLLQAGGSLRLSCAASGIIIYYYAMGWYRQAPGKERELVAAITYRGGSTYADSVKGRFTISRDNAKNTVYLQMNSLKPEDTAVYYCNAVWEEKYQAPGSYDYWGQGTQVTVSS", "low polyreactivity"],
  ["QVQLVESGGGLVQAAGSLRLSSAPSGRIFYKNARGWYRQAPGKETELVAAISWRGTSTYYADSVKGRFTISRDNAKNTVYLQMNILKPEDTAVYYCNTLYYSQREIYYWGYDSWGKGTQVTVSS", "high polyreactivity"],
  ["QVQLVESGGGLVQAGGSLRLSCAASGFNIVRYAMGWYRHAPRKERELVATITSGTSTNYADSVKGRITISRDNAKNTVYFQMNSLKPDDTAVYYCAADHYYTGTTYNFWGQGTQVNVSS", "low polyreactivity"]
]}

Qu. Complete the entry with polyreactivity (PSR sort gate) for QVQLVESGGGLVQAGGSLRLSCAASGSILKYYAMGWYRQAPGKERELVAAISSGGSTYYADSVKGRFTISRDNAKNTVYLQMNSLKPEDTAVYYCAAAWYGAKYIVLYDYWGQGTQVTVSS
Ans. low polyreactivity

Qu. Complete the entry with polyreactivity (PSR sort gate) for QVQLVESGGGLVQAGGSLRLSCAASGRIFYRYGMGWYRQAPGKERELVASITRGGSTYYADSVKGRFTISRDNAKNTVYLQMNSLKPEDTAVYYCNAQTRYRYQYGYLGGTGYNYWGQGTQVTVSS
Ans. low polyreactivity

Qu. Complete the entry with polyreactivity (PSR sort gate) for QVQLVESGGGLVQAGGSLRLSCAASGSIFVGNAMGWYRQAPGKERELVAAISSSGGSTYYADSVKGRFTISRDYAKNSVYLQMNSLKPEYTAVYDCAADTYSTSGYYYWGQGTQVTVSS
Ans. low polyreactivity
